TARGET_UNDER_TEST: Prothrombin (Homo sapiens)
ASSAY_OVERVIEW: human alpha-thrombin inhibitors, primary screen, counter-screen for coagulation protease inhibitor project, biochemical, 1536-well, fluorogenic AMC substrate (AID 1046);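 further: 0% = enzyme with no compound and 100% = wells without enzyme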
EXPERIMENTAL_PARAMETERS: Boc-VPR-AMC fluorogenic substrate cleavage, at 5 µM, active compounds read high
Out of some 220,000 compounds screened, about 560 (0.25%) were called active. The entries come from a sample that favours actives as a whole.
Entries and their inhibition
ENDPOINT_LABEL: inhibition (%)

>>> df
                                    compound  units_label  recorded_measurement
 0  CC1(OC(=O)CCc2ccccc2)C(=O)C=C2C=C(c3ccc(C#N)cc3)N(CCc3ccccn3)C=C2C1=O (stereo unspecified)            %                 -12.4
 1       O=C(Nc1ccccc1)Nc1nnc(COc2ccccc2F)s1            %                 -0.32
 2           Cc1nnc(SCC(=O)N2CCOCC2)[nH]c1=O            %                 -2.64
 3              CCN1CCN(C(=O)/C=C\C(=O)O)CC1            %                 -0.06
 4  O=C(CSc1nc2c(cnn2-c2ccc(F)cc2)c(=O)[nH]1)N1CCCCCC1            %                  40.9
 5  CCOC(=O)C1(CCOC)CCN(Cc2ccc(C(=O)OC)cc2)CC1            %                 -3.33
 6  CCO[C@@H]1OC(C(=O)NC2CC2)=C[C@H](C)[C@H]1CCCO            %                  -5.9
 7            C/C(=C/C(=O)N1CCN(C)CC1)C(=O)O            %                   103
 8  CC1COc2ccccc2N1S(=O)(=O)c1ccccc1 (stereo unspecified)            %                  4.45
 9  CC1CN(CCOc2ccccc2[N+](=O)[O-])CC(C)O1 (stereo unspecified)            %                  1.06
10  CN1CCN(C(=O)C2C3C=CC(C3)C2C(=O)O)CC1 (stereo unspecified)            %                 -0.84

Value source: PubChem BioAssay AID1046
